Target: MBP-FoxP1dN (Mus musculus, UniProt P58462 326-579)
Sequence: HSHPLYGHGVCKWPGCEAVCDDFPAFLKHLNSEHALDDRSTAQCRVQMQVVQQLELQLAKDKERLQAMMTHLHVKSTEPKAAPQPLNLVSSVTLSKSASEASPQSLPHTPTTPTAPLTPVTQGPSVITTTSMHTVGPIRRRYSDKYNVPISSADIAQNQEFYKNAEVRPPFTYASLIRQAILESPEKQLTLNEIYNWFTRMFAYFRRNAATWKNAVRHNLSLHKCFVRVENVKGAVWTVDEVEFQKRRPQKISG
Assay: PD-seq (MBP pull-down with sequencing); 20 mM Tris-HCl pH 7.5, 100 mM NaCl, 1.5 mM MgCl2, 0.4 uM protein, 0.1 uM dsDNA library, 30 min, room temperature, amylose pull-down; high values mean tight binding
Details: protein: recombinant; tags: His6-MBP; chain copies: 2; dsDNA, one strand shown
Over roughly 16,000 sequences, “rpm ratio (pull-down/input)” has its median near 0.94; the highest 2% begin near 1.7. The sample as a whole holds a higher share of the highest values than the screen did.
Below, each of the sequences is paired with its reported binding signal value.

**Q:** For GATGATTGTTCTCCCAGCTGATGAATTTCCCCATTCGAGTAAACAAATTTTCCTAATCTTTCTGTTCAAGCGCCATCTAC , what is its reported binding signal?
**A:** 0.898 RPM ratio (pull-down/input)

**Q:** Next entry: GATGATTGTTCTCCCAGCTGATGAATTACGATAGTCGAGTAAACAAATTTTCCTAATCTTTCTGTTCAAGCGCCATCTAC
**A:** 1.01 RPM ratio (pull-down/input)

**Q:** Proceed to GATGATTGTTCTCCCAGCTGATGAATTGTTGTGGTCGAGTAAACAAATTTTCCTAATCTTTCTGTTCAAGCGCCATCTAC
**A:** 2.1 RPM ratio (pull-down/input)

**Q:** Can you check GATGATTGTTCTCCCAGCTGATGAATTTATTGAATCGAGTAAACAAATTTTCCTAATCTTTCTGTTCAAGCGCCATCTAC next?
**A:** 1.28 RPM ratio (pull-down/input)

**Q:** // query: GATGATTGTTCTCCCAGCTGATGAATTCTTGCTGTCGAGTAAACAAATTTTCCTAATCTTTCTGTTCAAGCGCCATCTAC
**A:** 1.45 RPM ratio (pull-down/input)

**Q:** Same read-out for GATGATTGTTCTCCCAGCTGATGAATTATCCCTGTCGAGTAAACAAATTTTCCTAATCTTTCTGTTCAAGCGCCATCTAC ?
**A:** 0.907 RPM ratio (pull-down/input)

**Q:** Lookup GATGATTGTTCTCCCAGCTGATGAATTTGAACTTTCGAGTAAACAAATTTTCCTAATCTTTCTGTTCAAGCGCCATCTAC
**A:** 0.845 RPM ratio (pull-down/input)

**Q:** Now try GATGATTGTTCTCCCAGCTGATGAATTCCGGGATTCGAGTAAACAAATTTTCCTAATCTTTCTGTTCAAGCGCCATCTAC .
**A:** 0.754 RPM ratio (pull-down/input)

**Q:** Same question for GATGATTGTTCTCCCAGCTGATGAATTGCTGTTGTCGAGTAAACAAATTTTCCTAATCTTTCTGTTCAAGCGCCATCTAC please.
**A:** 2.5 RPM ratio (pull-down/input)
